Biological target: Receptor tyrosine-protein kinase erbB-2 (Homo sapiens, UniProt P04626)
Sequence (P04626 whole entry): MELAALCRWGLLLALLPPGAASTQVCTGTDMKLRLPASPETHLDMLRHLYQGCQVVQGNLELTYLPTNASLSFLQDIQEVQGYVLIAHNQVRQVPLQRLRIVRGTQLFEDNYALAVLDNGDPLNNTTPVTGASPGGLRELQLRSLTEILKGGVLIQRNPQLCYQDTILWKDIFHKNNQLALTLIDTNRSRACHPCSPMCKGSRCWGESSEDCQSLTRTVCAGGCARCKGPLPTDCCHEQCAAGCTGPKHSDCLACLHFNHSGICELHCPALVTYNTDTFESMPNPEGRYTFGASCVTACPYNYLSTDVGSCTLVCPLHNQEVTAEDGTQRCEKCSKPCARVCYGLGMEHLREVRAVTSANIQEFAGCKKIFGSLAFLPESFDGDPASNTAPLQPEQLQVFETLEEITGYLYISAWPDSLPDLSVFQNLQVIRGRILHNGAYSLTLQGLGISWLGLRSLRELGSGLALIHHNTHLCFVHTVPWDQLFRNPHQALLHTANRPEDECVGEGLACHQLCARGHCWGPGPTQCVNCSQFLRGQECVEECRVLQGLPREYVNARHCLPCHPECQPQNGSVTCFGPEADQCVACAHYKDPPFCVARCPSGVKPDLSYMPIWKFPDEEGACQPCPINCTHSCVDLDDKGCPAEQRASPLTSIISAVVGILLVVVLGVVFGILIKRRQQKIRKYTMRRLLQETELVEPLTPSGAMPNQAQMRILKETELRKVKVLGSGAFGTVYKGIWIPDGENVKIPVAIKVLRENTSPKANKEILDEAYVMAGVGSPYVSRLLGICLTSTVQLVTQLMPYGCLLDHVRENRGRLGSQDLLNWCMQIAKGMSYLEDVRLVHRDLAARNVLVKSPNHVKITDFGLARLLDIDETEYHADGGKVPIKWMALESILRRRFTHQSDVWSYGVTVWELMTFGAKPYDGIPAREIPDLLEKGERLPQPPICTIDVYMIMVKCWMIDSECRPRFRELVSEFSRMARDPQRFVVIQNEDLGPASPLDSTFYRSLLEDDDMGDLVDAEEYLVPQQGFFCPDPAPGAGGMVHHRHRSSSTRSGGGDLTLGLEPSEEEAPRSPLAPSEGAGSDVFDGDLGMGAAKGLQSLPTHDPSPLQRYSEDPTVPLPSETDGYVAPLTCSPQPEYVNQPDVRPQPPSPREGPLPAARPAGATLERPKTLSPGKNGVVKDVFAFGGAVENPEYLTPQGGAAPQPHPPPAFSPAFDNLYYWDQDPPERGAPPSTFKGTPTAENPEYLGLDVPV
Measure: pIC50
Entry type: numeric. Quantity: pIC50, the -log10 of concentration in molar units.

## Input Endpoint output: pIC50 of `CCOc1ncc2ncnc(Nc3ccc(Oc4ccc5c(c4)ncn5C)c(C)c3)c2n1` . Value?
## Output 6.92
